We begin with a simple list: items and their reported AST.
species on record: Rattus norvegicus; test: Open TG-GATES - Regimen: Daily Repeat; assay type: toxicity, organism-based, Sprague-Dawley; set-up: regimen Daily Repeat, gender Male, age 6 weeks; conditions: in vivo, po, 0 mg/kg, […], tissue Plasma, route gavage, dose level Control, time 7 day
measured_metric: AST (IU/L)

> print(dat)
                                    molecule  measure.unit  assay.value
 1  O=C1NC(=O)C(c2ccccc2)(c2ccccc2)N1 [PHENYTOIN]          IU/L           65
 2  O=P1(N(CCCl)CCCl)NCCCO1 (stereo unspecified) [CYCLOPHOSPHAMIDE ANHYDROUS]          IU/L         77.6
 3  COc1ccc(Cl)cc1C(=O)NCCc1ccc(S(=O)(=O)NC(=O)NC2CCCCC2)cc1 [GLYBURIDE]          IU/L         59.8
 4     Cn1c(=O)c2c(ncn2C)n(C)c1=O [CAFFEINE]          IU/L         70.6
 5                     C=CCO [ALLYL ALCOHOL]          IU/L         60.8
 6  Cc1cnc(NC(=O)C2=C(O)c3ccccc3S(=O)(=O)N2C)s1 [MELOXICAM]          IU/L         68.2
 7  CS(=O)(=O)Nc1ccc([N+](=O)[O-])cc1Oc1ccccc1 [NIMESULIDE]          IU/L         64.2
 8  Cc1cccc(Nc2cc(Cl)nc(SCC(=O)O)n2)c1C [PIRINIXIC ACID]          IU/L         67.6
 9  COc1ccc(O)c(C(C)(C)C)c1.COc1ccc(O)cc1C(C)(C)C [BUTYLATED HYDROXYANISOLE]          IU/L           67
10  O=C1CN(/N=C/c2ccc(-c3ccc([N+](=O)[O-])cc3)o2)C(O)=N1 [DANTROLENE]          IU/L         64.2
11  Cn1cnc([N+](=O)[O-])c1Sc1ncnc2nc[nH]c12 [AZATHIOPRINE]          IU/L           72
